- ASSAY_PROTOCOL: modulators of MEP2-GFP levels in yeast, confirmation, S. cerevisiae, flow cytometry GFP, cherry picks (AID 2272)
- EXPERIMENTAL_CONDITIONS: S. cerevisiae MEP2-GFP strain, 3 h, at 10 µM
Activity calls are given as the source filed them.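 How the source made its calls: active means GFP response above 150% of the DMSO control; inconclusive means Fewer than 70 cells counted for a yeast strain; inactive means the rest.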
Output constraint: value belongs to active, inactive

Sample answers from the record:
Data request: Outcome? CCCCCCCCC/C(=N\O)c1ccccn1
Data returned: inactive

Data request: Outcome? Cc1ccc(NC(=O)c2nc(S(=O)(=O)Cc3ccccc3)ncc2Cl)cc1
Data returned: inactive

Data request: Outcome? COc1cc(-c2nc3ccccn3c2NCC2CCCO2)ccc1O (configuration not stated)
Data returned: inactive

Continuing:
Data request: Outcome? Cc1cccc(NC(=S)NCC23C=CC(O2)C2C(=O)N(c4ccc(Cl)cc4)C(=O)C23)c1 (configuration not stated)
Data returned: inactive

Data request: Outcome? O=C(Nc1ccc(S(=O)(=O)N2CCOCC2)cc1)c1ccc([N+](=O)[O-])cc1Cl
Data returned: inactive

Data request: Outcome? CCC(=O)Nc1cccc(C(=O)/C=C/c2cc(Br)ccc2OC)c1
Data returned: inactive

Data request: Outcome? COc1ccc(-c2noc(CCCC(=O)NCCc3ccccc3)n2)cc1OC
Data returned: inactive

Data request: Outcome? O=C(c1ccc([N+](=O)[O-])o1)N1CCN(c2nc3c(F)cc(F)cc3s2)CC1
Data returned: active

Data request: Outcome? CC(Oc1cccc(Cl)c1)C(=O)Nc1nc(-c2ccccn2)cs1 (configuration not stated)
Data returned: inactive

Data request: Outcome? Cc1ccc(S(=O)(=O)N(CC(=O)NCc2ccncc2)Cc2ccccc2F)cc1
Data returned: inactive
